target: biotinylated labeled human GPC3 protein (produced in-house) (human, UniProt P51654 25-559, limits assumed, biotinylated (Dojindo, Cat. No. LK03); sites not stated); experiment: ELISA, biotinylated human GPC3 protein
valueKind: OD450 at 1.39 nM (OD450)

binder: hAb006LH3L1c (antibody, human IgG1, V domains shown, Humanized F3.38.7; VH H3 + VL L1c; expressed as human IgG1) VH: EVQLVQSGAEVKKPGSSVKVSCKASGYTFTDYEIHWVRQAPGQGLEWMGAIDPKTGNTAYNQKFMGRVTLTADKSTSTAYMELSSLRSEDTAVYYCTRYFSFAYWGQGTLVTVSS VL: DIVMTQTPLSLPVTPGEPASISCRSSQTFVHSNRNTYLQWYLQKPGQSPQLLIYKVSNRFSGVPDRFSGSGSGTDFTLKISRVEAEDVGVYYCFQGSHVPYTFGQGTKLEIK
valueKind: OD450 at 1.39 nM
testResult: 1.46
--
binder: hAb006LH3L1e (antibody, human IgG1, V domains shown, Humanized F3.38.7; VH H3 + VL L1e; expressed as human IgG1) VH: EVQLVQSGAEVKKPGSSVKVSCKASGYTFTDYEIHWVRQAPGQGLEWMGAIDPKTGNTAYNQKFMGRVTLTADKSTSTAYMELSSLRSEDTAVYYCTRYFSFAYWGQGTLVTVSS VL: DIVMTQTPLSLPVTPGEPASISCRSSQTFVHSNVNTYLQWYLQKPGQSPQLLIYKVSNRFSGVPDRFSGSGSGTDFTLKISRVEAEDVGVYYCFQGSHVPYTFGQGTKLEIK
valueKind: OD450 at 1.39 nM
testResult: 1.36
--
binder: hAb007LH1L1e (antibody, human IgG1, V domains shown, Humanized F3.81.19; VH H1 + VL L1e; expressed as human IgG1) VH: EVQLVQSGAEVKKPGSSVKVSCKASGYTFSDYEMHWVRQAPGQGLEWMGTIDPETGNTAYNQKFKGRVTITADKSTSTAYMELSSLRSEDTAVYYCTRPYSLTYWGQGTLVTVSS VL: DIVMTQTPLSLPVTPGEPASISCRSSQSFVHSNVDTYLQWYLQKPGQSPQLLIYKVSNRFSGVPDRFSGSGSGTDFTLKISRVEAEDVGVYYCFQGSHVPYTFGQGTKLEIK
valueKind: OD450 at 1.39 nM
testResult: 0.732
